Values from ChEMBL document CHEMBL5058577

# Test system: U2OS
# TEST DESCRIPTION: Multiplex assay against U2OS
# Format: toxicity, cell-based
# CONDITION: human, 24 h, 10 µM, compound concentration 10 uM, replicate 2
Lab note - cut at 90% for Population Apoptotic (%): true if strictly below, false if not.

### Prompt Check if Population Apoptotic (%) falls below 90% for Cl.NCCc1ccc(O)c(O)c1 [DOPAMINE HYDROCHLORIDE] .
### Response true

### Prompt Check if Population Apoptotic (%) falls below 90% for Cl.N=C(N)NC(=O)Cc1c(Cl)cccc1Cl [GUANFACINE HYDROCHLORIDE] .
### Response true

### Prompt Check if Population Apoptotic (%) falls below 90% for CN1CCN(c2cc(-c3ccccc3)nc(N)n2)CC1 .
### Response true

### Prompt Check if Population Apoptotic (%) falls below 90% for CCc1cc2cc(NS(=O)(=O)c3ccc(C#N)cc3)ccc2n(CC)c1=O .
### Response true

### Prompt Check if Population Apoptotic (%) falls below 90% for O=C(NCCN1CCC(n2c(=O)[nH]c3cc(Cl)ccc32)CC1)c1ccc(F)cc1 [HALOPEMIDE] .
### Response true

### Prompt Check if Population Apoptotic (%) falls below 90% for Cc1cnc(-c2cc(N3CCN(C(=O)CCS(C)(=O)=O)CC3)ncc2Cl)c(C)c1 .
### Response true

### Prompt Check if Population Apoptotic (%) falls below 90% for NCCc1cn(S(=O)(=O)c2c(Cl)nc3sccn23)c2ccccc12.O=C(O)C(=O)O .
### Response true

### Prompt Check if Population Apoptotic (%) falls below 90% for CCCCC(=O)N(Cc1ccc(-c2ccccc2-c2nnn[nH]2)cc1)[C@H](C(=O)O)C(C)C .
### Response true

### Prompt Check if Population Apoptotic (%) falls below 90% for COC[C@@H](c1ccc(C(F)(F)F)cc1)N1CCN(C2(C)CCN(C(=O)c3c(C)ncnc3C)CC2)C[C@@H]1C.O=C(O)/C=C\C(=O)O [VICRIVIROC MALEATE] .
### Response true

### Prompt Check if Population Apoptotic (%) falls below 90% for Br.CS(=O)(=O)Nc1c(O)ccc2c1CCCC2C1=NCCN1 (centres undefined) .
### Response false

### Prompt Check if Population Apoptotic (%) falls below 90% for O=C(CCCc1ccccc1)Nc1nc2ccccc2c(=O)s1 .
### Response false

### Prompt Check if Population Apoptotic (%) falls below 90% for C[C@H](N)COC(=O)[C@@H](CCCCN)NC(=O)Cc1c(-c2ccc3ccccc3c2)[nH]c2c1ccc1ccccc12 .
### Response false

### Prompt Check if Population Apoptotic (%) falls below 90% for CC(=O)Nc1cccc2c1c(Sc1ccc(Cl)cc1)c(C)n2CC(=O)O [AZD1981] .
### Response false

### Prompt Check if Population Apoptotic (%) falls below 90% for CC(/C=C1\SC(=S)N(CCCC(=O)Nc2ccc(C(=O)O)c(O)c2)C1=O)=C\c1ccccc1 .
### Response true

### Prompt Check if Population Apoptotic (%) falls below 90% for Cc1onc(-c2ccccc2Cl)c1C(=O)N(C)c1ccc(Cl)cc1 .
### Response true

---

# System: U2OS
# TEST DESCRIPTION: Multiplex assay against U2OS
# Assay type: toxicity, cell-based
# CONDITION: human, 48 h, 10 µM, compound concentration 10 uM, replicate 2
Criterion: Population Tubulin-Different-Phenotype (%) meeting or surpassing 7%. Met: criterion met. Not met: criterion not met.

### Prompt Please indicate if the recorded Population Tubulin-Different-Phenotype (%) for COC[C@@H](c1ccc(C(F)(F)F)cc1)N1CCN(C2(C)CCN(C(=O)c3c(C)ncnc3C)CC2)C[C@@H]1C.O=C(O)/C=C\C(=O)O [VICRIVIROC MALEATE] meets or exceeds 7%.
### Response criterion not met

### Prompt Please indicate if the recorded Population Tubulin-Different-Phenotype (%) for CC(C)c1noc(N2CCC(COc3ccc(-c4ccc(S(C)(=O)=O)cc4)nc3)CC2)n1 [GSK-1292263] meets or exceeds 7%.
### Response criterion not met

### Prompt Please indicate if the recorded Population Tubulin-Different-Phenotype (%) for Cc1noc(-c2ccc(-c3ccc(CC(=O)O)cc3)cc2)c1NC(=O)O[C@H](C)c1ccccc1Cl meets or exceeds 7%.
### Response criterion not met

### Prompt Please indicate if the recorded Population Tubulin-Different-Phenotype (%) for CC(C)COc1ccc(CNC(=O)N(Cc2ccc(F)cc2)C2CCN(C)CC2)cc1 [PIMAVANSERIN] meets or exceeds 7%.
### Response criterion met

### Prompt Please indicate if the recorded Population Tubulin-Different-Phenotype (%) for CN(C)C(=O)Cn1cc(-c2ccc(-c3cncc4ccccc34)cc2)cn1 meets or exceeds 7%.
### Response criterion met

---

# Tested on: Fibroblast
# TEST DESCRIPTION: Multiplex assay against human fibroblast
# Format: toxicity, cell-based
# CONDITION: 48 h, 1 µM, compound concentration 1 uM, replicate 1
For each of the compounds below, state its Population Pyknosed Nuclei (%).
State the answer as a number, implicitly in %.

The compound NCCc1cn(S(=O)(=O)c2c(Cl)nc3sccn23)c2ccccc12.O=C(O)C(=O)O , when measured on Fibroblast, yielded Population Pyknosed Nuclei (%) of 9

The compound COC[C@@H](c1ccc(C(F)(F)F)cc1)N1CCN(C2(C)CCN(C(=O)c3c(C)ncnc3C)CC2)C[C@@H]1C.O=C(O)/C=C\C(=O)O [VICRIVIROC MALEATE] , when measured on Fibroblast, yielded Population Pyknosed Nuclei (%) of 21

The compound Br.CS(=O)(=O)Nc1c(O)ccc2c1CCCC2C1=NCCN1 (centres undefined) , when measured on Fibroblast, yielded Population Pyknosed Nuclei (%) of 8

The compound CC(=O)Nc1cccc2c1c(Sc1ccc(Cl)cc1)c(C)n2CC(=O)O , when measured on Fibroblast, yielded Population Pyknosed Nuclei (%) of 15

---

For each of the compounds below, state its Population Mitochondria Different-Phenotype (%).
# Test system: Fibroblast
# TEST DESCRIPTION: Multiplex assay against human fibroblast
# Type: toxicity, cell-based
# CONDITION: 24 h, 1 µM, compound concentration 1 uM, replicate 2

Population Mitochondria Different-Phenotype (%) in this record for CCCOc1ccc2[nH]cc(C3=CCNCC3)c2n1.Cl : 5%

Population Mitochondria Different-Phenotype (%) in this record for CC(C)COc1ccc(CNC(=O)N(Cc2ccc(F)cc2)C2CCN(C)CC2)cc1 [PIMAVANSERIN] : 9%

Population Mitochondria Different-Phenotype (%) in this record for CC(=O)Nc1cccc2c1c(Sc1ccc(Cl)cc1)c(C)n2CC(=O)O [AZD1981] : 7%

Population Mitochondria Different-Phenotype (%) in this record for CCCCCC(O)/C=C/[C@H]1C(=O)CC(O)C1C/C=C\CCCC(=O)O (some centres undefined) : 10%

Population Mitochondria Different-Phenotype (%) in this record for NCCc1cn(S(=O)(=O)c2c(Cl)nc3sccn23)c2ccccc12.O=C(O)C(=O)O : 11%

Population Mitochondria Different-Phenotype (%) in this record for CC(C)c1noc(N2CCC(COc3ccc(-c4ccc(S(C)(=O)=O)cc4)nc3)CC2)n1 [GSK-1292263] : 2%

Population Mitochondria Different-Phenotype (%) in this record for COc1ccccc1N1CCN(C[C@@H](C(=O)NC(C)(C)C)c2ccccc2)CC1.Cl.Cl : 3%

Population Mitochondria Different-Phenotype (%) in this record for CN(C)C(=O)Cn1cc(-c2ccc(-c3cncc4ccccc34)cc2)cn1 : 5%

Population Mitochondria Different-Phenotype (%) in this record for Cc1cnc(-c2cc(N3CCN(C(=O)CCS(C)(=O)=O)CC3)ncc2Cl)c(C)c1 : 0%

---

# Test system: HEK-293T
# TEST DESCRIPTION: Multiplex assay against HEK293T
# Format: toxicity, cell-based
# CONDITION: human, 24 h, 1 µM, compound concentration 1 uM, replicate 1
For each of the molecules below, state its Population Mitotic Cells (%).
State the answer as a number, implicitly in %.

Population Mitotic Cells (%) in this record for CC[C@@H](C)Nc1nc(C)nc2c(-c3ccc(OC)nc3C)c(C)nn12 : 75

Population Mitotic Cells (%) in this record for N#Cc1cc(F)cc(-c2nc(-c3ccc(F)cn3)no2)c1 : 56

Population Mitotic Cells (%) in this record for Cc1c(CC(=O)O)c2cccnc2n1Cc1ccc(S(C)(=O)=O)cc1C(F)(F)F : 77

Population Mitotic Cells (%) in this record for CCCCC1=NC2(CCCC2)C(=O)N1Cc1ccc(-c2ccccc2-c2nnn[nH]2)cc1 : 68

Population Mitotic Cells (%) in this record for CC(C)c1noc(N2CCC(COc3ccc(-c4ccc(S(C)(=O)=O)cc4)nc3)CC2)n1 : 76

Population Mitotic Cells (%) in this record for CN1CCN(c2cc(-c3ccccc3)nc(N)n2)CC1 : 79

Population Mitotic Cells (%) in this record for CN(C)C(=O)Cn1cc(-c2ccc(-c3cncc4ccccc34)cc2)cn1 : 52

Population Mitotic Cells (%) in this record for Br.CS(=O)(=O)Nc1c(O)ccc2c1CCCC2C1=NCCN1 (centres undefined) : 61

Population Mitotic Cells (%) in this record for CC(C)(C)c1cc(NC(=O)Nc2ccc(-c3cn4c(n3)sc3cc(OCCN5CCOCC5)ccc34)cc2)no1 : 58
